Target: T1, cynomolgus CX3CR1 (cynomolgus, UniProt P49238 1-355 (human entry))
T1 construct: transiently expressed on HEK293T cells; also called cyCX3CR1; cyno CX3CR1
T1 chain: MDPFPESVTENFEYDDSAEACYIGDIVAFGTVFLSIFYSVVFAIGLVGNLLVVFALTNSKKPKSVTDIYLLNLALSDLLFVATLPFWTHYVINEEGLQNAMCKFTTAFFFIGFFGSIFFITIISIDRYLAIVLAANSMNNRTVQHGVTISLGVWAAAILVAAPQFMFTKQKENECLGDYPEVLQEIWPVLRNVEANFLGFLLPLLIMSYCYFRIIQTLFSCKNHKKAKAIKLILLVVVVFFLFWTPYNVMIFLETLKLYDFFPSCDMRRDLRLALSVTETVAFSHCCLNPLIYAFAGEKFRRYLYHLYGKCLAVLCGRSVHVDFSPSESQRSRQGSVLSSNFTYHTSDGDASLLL
Assay: A647-fractalkine competition FACS, HEK293T cynomolgus CX3CR1
pIC50: −log10 of the molar value.
measured.property: pIC50

[[record]]
binder = "CX3CR1BIIPMP54D5 (VHH, also called 54D05; CX3CR1BII54D5; not shown: C-terminal c-myc and His6 tags) VHH: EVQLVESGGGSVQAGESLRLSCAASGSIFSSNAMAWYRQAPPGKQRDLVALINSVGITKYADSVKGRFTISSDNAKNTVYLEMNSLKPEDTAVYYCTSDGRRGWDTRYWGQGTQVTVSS"
measured_property = "pIC50"
numeric_value = 7.19

[[record]]
binder = "CX3CR1BIIPMP66G01 (VHH, also called CX3CR1BII66G01; not shown: C-terminal c-myc and His6 tags) VHH: EMQLVESGGGSVQAGESLRLSCAASGSIFSSNAMAWYRQAPGKQRDLVALINSVGITKYADSVKGRFTISRDNAKNTVYLQMNSLKPEDTAVYYCTSDGRRGWDTRYWGQGTQVTVSS"
measured_property = "pIC50"
numeric_value = 6.92


Each recorded value in this set is attributed to patent US20130224224A1.
